# system.name: purified human Factor XIa (Homo sapiens (Human))
# Sequence (P03951 whole entry, looked up): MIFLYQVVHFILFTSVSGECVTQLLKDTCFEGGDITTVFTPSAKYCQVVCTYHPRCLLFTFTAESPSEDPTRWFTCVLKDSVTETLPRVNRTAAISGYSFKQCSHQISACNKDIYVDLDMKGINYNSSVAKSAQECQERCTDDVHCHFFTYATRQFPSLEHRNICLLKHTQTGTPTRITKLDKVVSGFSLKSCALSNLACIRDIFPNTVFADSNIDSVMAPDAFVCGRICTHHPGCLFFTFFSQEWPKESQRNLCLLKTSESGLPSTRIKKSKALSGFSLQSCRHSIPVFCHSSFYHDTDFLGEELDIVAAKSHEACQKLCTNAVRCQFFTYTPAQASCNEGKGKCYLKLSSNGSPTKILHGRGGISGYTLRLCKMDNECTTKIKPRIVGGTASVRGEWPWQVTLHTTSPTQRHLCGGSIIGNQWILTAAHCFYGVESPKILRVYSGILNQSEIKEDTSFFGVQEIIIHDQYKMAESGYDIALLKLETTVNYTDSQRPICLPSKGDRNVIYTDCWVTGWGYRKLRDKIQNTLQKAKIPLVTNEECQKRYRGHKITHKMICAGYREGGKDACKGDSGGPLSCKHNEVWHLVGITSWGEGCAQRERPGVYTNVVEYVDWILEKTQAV
# Sequence (P03951 whole entry partner, looked up): as the sequence (P03951 whole entry, looked up) above
# protocol.summary: biochemical
# Assay type: biochemical
# measurement.setup: read-out: Factor XIa Ki
Structures can show the parent of a compound that is named as a salt.
experimental.endpoint: Ki (nM)

In [3]: df
Out[3]:
                                   compound                               system_name  experimental_endpoint  measurement_qualifier  numeric_value
0  COC(=O)Nc1ccc2c(c1)NC(=O)[C@H](C)CCC[C@H](N1CCC(c3cccc(Cl)c3OC)=CC1=O)c1cc-2ccn1  purified human Factor XIa (Homo sapiens (Human))                     Ki                      >            404
1  Cc1cc2cc3c(cc2[nH]1)NC(=O)[C@H](C)CCC[C@H](N1CCC(c2c(F)ccc(Cl)c2F)=CC1=O)c1cc-3ccn1 [Example 85, TFA salt]  purified human Factor XIa (Homo sapiens (Human))                     Ki                      =           9.17
2  COC(=O)Nc1ccc2c(c1)NC(=O)[C@H](C)CCC[C@H](N1CCC(c3c(F)ccc(Cl)c3F)=CC1=O)c1nc-2c(Cl)[nH]1 [Example 135, TFA salt]  purified human Factor XIa (Homo sapiens (Human))                     Ki                      =           0.05
3  COC(=O)Nc1ccc2c(c1)NC(=O)[C@H](C)CCC[C@H](N1CCC(c3cc(Cl)ccc3C)=CC1=O)c1cc-2ccn1  purified human Factor XIa (Homo sapiens (Human))                     Ki                      =           0.62
4  C[C@@H]1CCC[C@H](N2CCC(c3c(-c4ccncc4)ccc(Cl)c3F)=CC2=O)c2cc(ccn2)-c2ccccc2NC1=O [Example 56, TFA salt]  purified human Factor XIa (Homo sapiens (Human))                     Ki                      =           16.5
5  COCc1nnc(Nc2ccc3c(c2)NC(=O)[C@H](C)CCC[C@H](N2CCC(c4c(F)ccc(Cl)c4F)=CC2=O)c2cc-3ccn2)o1 [Example 41, TFA salt]  purified human Factor XIa (Homo sapiens (Human))                     Ki                      =           0.69
6  COC(=O)Nc1cc2c(cc1I)-c1ccnc(c1)[C@@H](N1CCC(c3c(F)ccc(Cl)c3F)=CC1=O)CCC[C@@H](C)C(=O)N2 [Example 62, TFA salt]  purified human Factor XIa (Homo sapiens (Human))                     Ki                      =            196
7  COC(=O)Nc1ccc2c(c1)NC(=O)[C@H](C)CCC[C@H](N1CCC(c3c(-c4c[nH]nn4)ccc(Cl)c3F)=CC1=O)c1cc-2ccn1  purified human Factor XIa (Homo sapiens (Human))                     Ki                      =           0.11

###

pKi listing for selected compounds.
# system.name: purified human plasma kallikrein (Homo sapiens (Human), UniProt P03952)
# Sequence (P03952 whole entry, looked up): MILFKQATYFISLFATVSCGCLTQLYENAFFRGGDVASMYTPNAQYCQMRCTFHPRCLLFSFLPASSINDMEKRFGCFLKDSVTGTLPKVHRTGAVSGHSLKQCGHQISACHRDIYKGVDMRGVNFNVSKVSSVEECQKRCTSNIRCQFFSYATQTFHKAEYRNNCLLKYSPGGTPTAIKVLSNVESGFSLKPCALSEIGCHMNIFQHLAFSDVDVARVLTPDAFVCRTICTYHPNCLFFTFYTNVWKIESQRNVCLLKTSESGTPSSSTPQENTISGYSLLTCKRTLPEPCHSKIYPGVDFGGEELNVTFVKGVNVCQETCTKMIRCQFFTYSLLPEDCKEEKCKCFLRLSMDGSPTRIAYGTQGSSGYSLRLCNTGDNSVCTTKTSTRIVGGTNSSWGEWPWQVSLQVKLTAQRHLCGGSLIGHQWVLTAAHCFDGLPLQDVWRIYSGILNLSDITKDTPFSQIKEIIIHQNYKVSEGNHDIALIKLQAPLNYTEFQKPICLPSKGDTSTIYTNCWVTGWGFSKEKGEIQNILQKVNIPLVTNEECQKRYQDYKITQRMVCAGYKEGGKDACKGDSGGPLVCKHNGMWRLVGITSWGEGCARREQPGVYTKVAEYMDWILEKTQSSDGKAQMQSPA
# Sequence (P03952 whole entry partner, looked up): as the sequence (P03952 whole entry, looked up) above
# protocol.summary: biochemical
# Format: biochemical
# measurement.setup: read-out: Plasma Kallikrein Ki
pKi: −log10 of the molar value. Where a name gives a salt, the structure may show the parent alone.

compound	pKi
C[C@@H]1CCC[C@H](N2CCC(c3c(F)ccc(Cl)c3F)=CC2=O)c2cc(ccn2)-c2ccc(NC3O[C@H](C(=O)O)[C@@H](O)[C@H](O)[C@H]3O)cc2NC1=O (some centres unmarked)	7.59
COC(=O)c1ccc2c(c1)-c1ccnc(c1)[C@@H](N1CCC(c3c(F)ccc(Cl)c3F)=CC1=O)CCC[C@@H](C)C(=O)N2	6.97
COC(=O)c1cccc2c1-c1ccnc(c1)[C@@H](N1CCC(c3c(F)ccc(Cl)c3F)=CC1=O)CCC[C@@H](C)C(=O)N2 [Example 213, TFA salt]	5.47
CC1CCC[C@H](N2CCC(c3c(F)ccc(Cl)c3F)=CC2=O)c2cc(ccn2)-c2ccc(C#N)cc2NC1=O (some centres unmarked) [Example 109, TFA salt]	7.40
C[C@@H]1CCC[C@H](N2CCC(c3c(F)ccc(Cl)c3F)=CC2=O)c2cc(ccn2)-c2ccc(NC(=O)OCCO)cc2NC1=O [Example 54, TFA salt]	9.00

###

# system.name: purified human plasma kallikrein (Homo sapiens (Human), UniProt P03952)
# protocol.summary: biochemical
# Assay type: biochemical
# measurement.setup: read-out: Plasma Kallikrein Ki
pKi: −log10 of the molar value. Where a name gives a salt, the structure may show the parent alone.
Below, each entry is listed alongside its reported pKi.
experimental.endpoint: pKi

>>> print(df.to_string())
                                   compound                               system_name  measurement_qualifier  numeric_value
0  COC(=O)Nc1ccc2c(c1)NC(=O)[C@H](C)CCC[C@H](N1CCC(c3c(C(C)=O)ccc(Cl)c3F)=CC1=O)c1cccc-2c1 [Example 171]  purified human plasma kallikrein (Homo sapiens (Human), UniProt P03952)                      =           8.05
1  C[C@@H]1CCC[C@H](N2CCC(c3c(C#N)ccc(C#N)c3F)=CC2=O)c2cc(ccn2)-c2ccccc2NC1=O [Example 46, TFA salt]  purified human plasma kallikrein (Homo sapiens (Human), UniProt P03952)                      =           6.17
2  CC(=O)NC(=S)Nc1ccc2c(c1)NC(=O)[C@H](C)CCC[C@H](N1CCC(c3c(F)ccc(Cl)c3F)=CC1=O)c1cc-2ccn1 [Example 63]  purified human plasma kallikrein (Homo sapiens (Human), UniProt P03952)                      =           7.32
3  C[C@@H]1CCC[C@H](N2CCC(c3c(F)ccc(Cl)c3F)=CC2=O)c2cc(ccn2)-c2c(ccc(F)c2F)NC1=O [Example 203, TFA salt]  purified human plasma kallikrein (Homo sapiens (Human), UniProt P03952)                      =           7.36
4  C[C@@H]1CCC[C@H](N2CCC(c3c(F)ccc(Cl)c3F)=CC2=O)c2cc(ccn2)-c2c(cccc2C(=O)O)NC1=O [Example 214, TFA salt]  purified human plasma kallikrein (Homo sapiens (Human), UniProt P03952)                      <           4.89
5  CC(C)[C@@H]1CCC[C@H](N2CCC(c3c(F)ccc(Cl)c3F)=CC2=O)c2cc(ccn2)-c2ccccc2NC1=O [Example 95, TFA salt]  purified human plasma kallikrein (Homo sapiens (Human), UniProt P03952)                      =           6.97
6  COC(=O)Nc1ccc2c(c1)NC(=O)[C@H](C)CCC[C@H](N1CCC(c3c(C#N)ccc(C#N)c3F)=CC1=O)c1cc-2cc(OC)n1 [Example 7]  purified human plasma kallikrein (Homo sapiens (Human), UniProt P03952)                      =           8.00
7  C[C@@H]1CCC[C@H](N2CCC(c3c(F)ccc(Cl)c3F)=CC2=O)c2cc(ccn2)-c2ccc(Nc3ccncn3)cc2NC1=O [Example 90, TFA salt]  purified human plasma kallikrein (Homo sapiens (Human), UniProt P03952)                      =           8.40
8  C[C@@H]1CCC[C@H](N2CCC(c3c(F)ccc(Cl)c3F)=CC2=O)c2cc(ccn2)-c2cc(F)c(F)cc2NC1=O [Example 205, TFA salt]  purified human plasma kallikrein (Homo sapiens (Human), UniProt P03952)                      =           7.05
9  COC(=O)Nc1ccc2c(c1)NC(=O)[C@H](C)CCC[C@H](N1CCC(c3cc(C)ccc3F)=CC1=O)c1cc-2ccn1 [Example 113]  purified human plasma kallikrein (Homo sapiens (Human), UniProt P03952)                      =           7.81
